# procedure-text: Nrf2 qHTS screen for inhibitors; also: nearly all actives have a fitted effect of over 60% in size; also: potency is read from the fitted curve at half-maximal effect
# study-conditions: A549 ARE-Fluc reporter, luciferase luminescence, 18-24 h; series mostly up to 46 µM
# Method: NIH Molecular Libraries Probe Production Network [MLPCN] NIH Chemical Genomics Center [NCGC] Assay Provider: Shyam Biswal, Johns Hopkins University […] This is the Nrf2 activity measured in the luminescent read. […] A concentration-response assay was performed with A549 ARE_Fluc cells which are suspended in 5% FBS OPTI-MEM. […] Afterwards another ViewLux read is performed using the clear filter to get a luminescent read with the settings of 40 second exposure, 2x binning, and high gain. […]
The whole screen tested about 360,000 compounds, of which about 7,500 (2.1%) were called active. Roughly 20% stayed inconclusive and do not appear here. The sample as a whole holds a higher share of actives than the screen did.
property-label: Potency

Please review the entries below; each comes with its answer.
>>> result("Cc1nc2ccc(NC(=O)c3cccc(S(=O)(=O)N4CCOCC4)c3)cc2s1")
"18.4 µM (active)"
>>> result("O=C(c1cc(COc2ccc(F)c(F)c2)on1)N1CCOCC1")
"inactive"
>>> result("C=CCC1(CC=C)CCCN1C(=O)c1cc(COc2ccc(-n3cncn3)cc2)on1")
"8.2 µM (active)"
>>> result("OCCNc1ncnc2oc(-c3ccco3)c(-c3ccco3)c12")
"inactive"
>>> result("CCCOc1ccc(Cc2c(Cl)nc(SC)nc2NC)cc1")
"2.06 µM (active)"

With those in mind, consider the next molecule.
Documented Potency of `CCn1ccnc1CN(C)C(=O)c1cc(COc2ccc(-n3cncn3)cc2)on1` : inactive

----------
# procedure-text: Nrf2 qHTS screen for inhibitors; also: nearly all actives have a fitted effect of over 60% in size
# study-conditions: A549 ARE-Fluc reporter, luciferase luminescence, 18-24 h; series mostly up to 46 µM
Among all 360,000 compounds or so, about 7,500 (2.1%) were called active. Roughly 20% stayed inconclusive and do not appear here. Calls follow the shape of the dose curve; as a rule, active = well fitted inhibition curve with a large enough effect; inconclusive = small, poorly fitted or top-dose-only effect, or effect the other way; inactive = flat fitted curve, though single readings scatter. The sample as a whole holds a higher share of actives than the screen did.
Respond only with the outcome that fits, drawn from active, inactive

>>> class_label("O=C(Cc1c(F)cccc1Cl)Nc1ncc([N+](=O)[O-])s1")
"active"
>>> class_label("O=C(OCC#CCSc1nnc(-c2ccco2)o1)c1ccc(F)cc1")
"inactive"

// next entry
Could you please tell me the result logged for `CN(C)c1ccc(NC(=O)CSc2nc(-c3ccco3)cc(C(F)(F)F)n2)cc1` in this assay?
inactive

----------
# procedure-text: Nrf2 qHTS screen for inhibitors; also: nearly all actives have a fitted effect of over 60% in size
# study-conditions: A549 ARE-Fluc reporter, luciferase luminescence, 18-24 h; series mostly up to 46 µM
The whole screen tested about 360,000 compounds, of which about 7,500 (2.1%) were called active. Inconclusive results (about 20%) are left out. Calls follow the shape of the dose curve; as a rule, active = well fitted inhibition curve with a large enough effect; inconclusive = small, poorly fitted or top-dose-only effect, or effect the other way; inactive = flat fitted curve, though single readings scatter. What follows is part of a selection rich in actives, with near analogues and random picks from the rest.
Please reply with one of these outcomes: Y for active, N for inactive

A selection of reference data follows.
>>> class_label("Cc1ccc(S(=O)(=O)N2CCN(C(=O)c3cccs3)CC2)cc1")
"N"
>>> class_label("O=S(=O)(c1ccc2c(c1)OCCCO2)N1CCN(S(=O)(=O)c2c(F)cccc2F)CC1")
"N"
>>> class_label("CC(C)Cc1ccc(S(=O)(=O)N2CCN(C(=O)c3ccco3)CC2)cc1")
"Y"
>>> class_label("O=C(CNS(=O)(=O)c1ccccc1)N1CCN(C(=O)c2ccco2)CC1")
"N"

Kindly review the next compound as well.
For `O=C(CCCC(=O)N1CCN(c2cccc(Cl)c2)CC1)c1ccccc1` , which call appears in the assay record?
N

----------
# procedure-text: Nrf2 qHTS screen for inhibitors; also: nearly all actives have a fitted effect of over 60% in size
# study-conditions: A549 ARE-Fluc reporter, luciferase luminescence, 18-24 h; series mostly up to 46 µM
Among all 360,000 compounds or so, about 7,500 (2.1%) were called active. Not shown: some 20% with an inconclusive outcome. The call rests on the fitted dose curve; in most records, active means well fitted inhibition curve with a large enough effect; inconclusive means small, poorly fitted or top-dose-only effect, or effect the other way; inactive means flat fitted curve, though single readings scatter. This excerpt belongs to a sample that is enriched for actives.
The reply should name one outcome from YES (active), NO (inactive)

>>> class_label("CN(Cc1cncn1C)c1ncnc2ccc(-c3ccc4c(c3)OCO4)cc12")
"NO"
>>> class_label("COc1ccccc1NC(=O)C(=O)c1cc(C)n(-c2ccccc2F)c1C")
"NO"
>>> class_label("COCCNC(=O)CSc1nc(-c2ccccc2)[nH]c1-c1ccc(C)cc1")
"NO"

Write down the call the test reported for this molecule. Item: `Cc1cccc(NC(=O)c2ccc(COc3ccccc3[N+](=O)[O-])o2)n1`
NO

Write down the call the test reported for this molecule. Item: `O=C(Nc1ccn(Cc2ccccc2F)n1)c1ccc(COc2ccc(Cl)cc2Cl)o1`
YES

So what was the verdict on CCc1ccc(C2C(C(=O)Nc3ccccc3)=C(C)Nc3c(C(=O)Nc4ccc(C)cc4)cnn32)cc1 (stereo not given) in this test?
NO

Name the outcome recorded for `CN(C)c1ccc(/C=N\S(=O)(=O)c2ccccc2)cc1` in the assay.
NO

# outcome recorded in this test, key = `O=C(COc1ccc(Cl)cc1)Nc1ccc(-c2nc3cc(Cl)ccc3o2)c(O)c1`
NO

Kindly provide the recorded test outcome for the following molecule: `Cc1ccccc1-c1nc2cc(NC(=O)c3cccc(OCCC(C)C)c3)ccc2o1`
YES

Hello, I am checking results. What call was entered for `O=C(NCc1nnc(C(=O)Nc2ccc(C(F)(F)F)cc2Cl)o1)c1ccccc1` ?
NO

----------
# procedure-text: Nrf2 qHTS screen for inhibitors; also: nearly all actives have a fitted effect of over 60% in size
# study-conditions: A549 ARE-Fluc reporter, luciferase luminescence, 18-24 h; series mostly up to 46 µM
The campaign covered roughly 360,000 compounds. About 7,500 (2.1%) were called active. Roughly 20% stayed inconclusive and do not appear here. Calls follow the shape of the dose curve; as a rule, active = well fitted inhibition curve with a large enough effect; inconclusive = small, poorly fitted or top-dose-only effect, or effect the other way; inactive = flat fitted curve, though single readings scatter. The entries come from a sample that favours actives as a whole.
Hi! Could you answer with just one of these? active, inactive

Use the examples below as a reference point.
>>> class_label("Cc1ccc(SCC(=O)Nc2ccc3oc(-c4ccccc4C)nc3c2)cc1")
"inactive"
>>> class_label("COc1ccc(-c2ccc3c(c2)C2CC3CCN2CCC#N)cc1 (stereo not given)")
"inactive"
>>> class_label("Cc1cccc(N2CCN(C3=C(c4ccccc4)C(=O)c4ccccc43)CC2)c1C")
"inactive"
>>> class_label("CCC(C)(C)c1ccc(Oc2ccc(NC(=O)COC(=O)C3=COCCO3)cc2)cc1")
"active"
>>> class_label("O=C(O)c1ccccc1/C=N/Nc1ccc(S(=O)(=O)Nc2ccc(Cl)cc2)cc1[N+](=O)[O-]")
"inactive"
>>> class_label("Cn1c(=O)c2c(nc(NCCc3ccccc3)n2Cc2ccccc2Br)n(C)c1=O")
"inactive"

Look up the recorded call for `Cn1c(=O)[nH]c(=O)c2c1nc(NCCc1ccccc1)n2Cc1ccc(F)cc1` in this test.
inactive

Write down the call the test reported for this compound. Item: `CCOc1ccc(NC(=O)c2ccc(NC(=O)COC(=O)c3ccc(NC(=O)CC#N)cc3)cc2)cc1`
inactive

How did this test come out for `CCCOc1ccc(C(=O)Nc2ccc3oc(-c4cccc(Cl)c4Cl)nc3c2)cc1` ?
active

# lookup: test call for `O=C(Cn1c(=O)n(Cc2cccs2)c(=O)c2cccnc21)Nc1ccc(F)cc1`
inactive

In this assay, the call recorded for CCOc1ccc(S(=O)(=O)Nc2ccc3oc4c(c3c2)CC(C)CC4)cc1 (stereo not given) was what?
inactive

Returns: the outcome recorded for `COc1ccc(NC(=O)COC(=O)CNC(=O)C2CCCCC2)cc1` in this assay.
inactive

----------
# procedure-text: Nrf2 qHTS screen for inhibitors; also: nearly all actives have a fitted effect of over 60% in size
# study-conditions: A549 ARE-Fluc reporter, luciferase luminescence, 18-24 h; series mostly up to 46 µM
Screen size: about 360,000 compounds; about 7,500 (2.1%) were called active. Inconclusive results (about 20%) are left out. Calls follow the shape of the dose curve; as a rule, active = well fitted inhibition curve with a large enough effect; inconclusive = small, poorly fitted or top-dose-only effect, or effect the other way; inactive = flat fitted curve, though single readings scatter. This excerpt belongs to a sample that is enriched for actives.
The categories you may choose from are active, inactive

Study these solved cases before continuing.
>>> class_label("O=[N+]([O-])c1ccccc1/C=C/CN1CCC(O)CC1")
"inactive"
>>> class_label("Cc1cccc(C)c1NC(=O)COC(=O)c1ccccc1O")
"inactive"
>>> class_label("CCOC(=O)c1cccc(NS(=O)(=O)c2c(C(=O)N3CCCCCC3)c(C)n(C)c2C)c1")
"inactive"
>>> class_label("CC(=O)c1c(C)[nH]c(C(=O)OCC(=O)NCCC(C)C)c1C")
"active"
>>> class_label("O=C(COC(=O)C1CCCO1)Nc1nc(-c2ccc(F)cc2)cs1 (stereo not given)")
"inactive"
>>> class_label("O=C(Nc1ccc(C(=O)N2CCOCC2)cc1)Nc1cccc(C(F)(F)F)c1")
"inactive"
>>> class_label("CCOC(=O)N1CCN(C(=O)c2ccc(S(=O)(=O)Nc3cccc(C(F)(F)F)c3)cc2)CC1")
"active"
>>> class_label("CC(=O)c1c(C)[nH]c(C(=O)OCC(=O)Nc2sc3c(c2C#N)CCCC3)c1C")
"active"

Just curious, what result did `Cc1cccc(C(=O)OCC(=O)Nc2sc3c(c2C#N)CCC3)c1` get here?
inactive

GET /call?item= `CC(=O)c1c(C)[nH]c(C(=O)OCC(=O)Nc2cc(S(=O)(=O)N3CCCCC3)ccc2C)c1C` returns the recorded outcome of this test.
inactive
